# Test system: Cytochrome P450 2D6 (Homo sapiens) (UniProt P10635)
# Sequence (P10635 whole entry, looked up): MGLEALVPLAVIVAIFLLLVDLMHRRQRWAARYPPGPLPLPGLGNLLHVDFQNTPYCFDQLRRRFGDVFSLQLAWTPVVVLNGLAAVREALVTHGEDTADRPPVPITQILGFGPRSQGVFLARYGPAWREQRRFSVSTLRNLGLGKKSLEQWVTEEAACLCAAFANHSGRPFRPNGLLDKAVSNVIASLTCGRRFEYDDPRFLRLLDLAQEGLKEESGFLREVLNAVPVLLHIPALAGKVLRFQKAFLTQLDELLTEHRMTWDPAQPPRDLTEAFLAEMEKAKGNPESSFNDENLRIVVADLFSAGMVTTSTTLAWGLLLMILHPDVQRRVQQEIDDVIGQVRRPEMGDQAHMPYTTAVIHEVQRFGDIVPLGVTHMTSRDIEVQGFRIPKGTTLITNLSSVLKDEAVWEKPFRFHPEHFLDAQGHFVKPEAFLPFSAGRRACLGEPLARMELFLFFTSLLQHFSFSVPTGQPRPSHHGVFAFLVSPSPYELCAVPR
# Assay: Cytochrome P450 family 2 subfamily D member 6 (CYP2D6) small molecule antagonists: luciferase biochemical (cell-free) qHTS assay (AID 1645840); further: nearly all actives have a fitted effect of over 55% in size
# Condition description: P450-Glo CYP2D6 enzyme, luciferin luminescence, 1 h; series mostly up to 57.4 µM
Results filed as inconclusive are left out. Calls of active or inactive are those of the source. The call rests on the fitted dose curve; in most records, active means well fitted inhibition curve with a large enough effect in the repeat runs; inconclusive means weak or mixed curves; inactive means flat fitted curve, though single readings scatter.
Your response should consist of one outcome taken from active, inactive

Molecule	Cat
ClCc1cccc(Cl)c1	active
C[N+]1(CCC(C(N)=O)(c2ccccc2)c2ccccc2)CCCCC1	active
CC[C@]1(O)CC[C@H]2[C@@H]3CCC4=CCCC[C@@H]4[C@H]3CC[C@@]21C	active
C[C@@H]1CN(C2CCC(C#N)(c3ccc(F)cc3)CC2)CC[C@]1(C(=O)O)c1ccccc1 (stereo partly specified)	active
CC1Sc2c(C(=O)O)c(=O)c3cc(F)c(N4CCNCC4)cc3n21 (stereo unspecified)	inactive
COc1cc(C[C@@H](C)N)c(OC)cc1Br	active

## Input What is the recorded call for this molecule in the test? COc1ccc2[nH]cc(CCN(C(C)C)C(C)C)c2c1
## Output active

## Input Tell me the recorded outcome of this test for ClC1=C(Cl)C2(Cl)C(CBr)CC1(Cl)C2(Cl)Cl (stereo unspecified) .
## Output inactive

## Input Recorded test outcome, item COP(=S)(OC)Oc1ccc(Sc2ccc(OP(=S)(OC)OC)cc2)cc1
## Output inactive

## Input I would be grateful if you could indicate the recorded call for CCOC(=O)c1ncn2c1CN(C)C(=O)c1c(I)cccc1-2 .
## Output inactive

## Input Assay outcome for COc1cc(CC(C)N)c(OC)cc1Br (stereo unspecified) : what was it?
## Output active

## Input What did this assay record as the result for Cc1ccc([N+](=O)[O-])[c]2c1[O][Hg]2 ?
## Output active

## Input Hi, do you know how NC1(c2ccccc2)CCCCC1 came out in this test?
## Output active

## Input Recorded test call requested for CCS(=O)(=O)C(C)(C)S(=O)(=O)CC
## Output inactive

## Input Test call for this molecule, please: CC(C)=CCN1CC[C@@]2(C)c3cc(O)ccc3C[C@@H]1[C@@H]2C
## Output active

## Input For c1cc2c(c(N3CCNCC3)c1)OCCO2 , which call appears in the assay record?
## Output inactive

----------
# Condition description: Ebola virus entry assay, ratio channel
Active and inactive are the calls of the source. No rule for the calls is given here.
Outcomes you can answer with include only these: yes (1) (active), no (0) (inactive)

CCN(CC)C(=O)c1cccc(C)c1 no (0)
CCN(CC)CCSC(=O)C(c1ccccc1)c1ccccc1 no (0)
Clc1ccc2c(c1)CCc1cccnc1C2=C1CCNCC1 yes (1)
CC1(C)[C@@H]2CC[C@@]1(C)C(=O)C2 no (0)

## Input Please state the recorded outcome for this compound: CN(C)CCOC1=Cc2ccccc2Sc2ccc(Cl)cc21
## Output yes (1)

## Input Which outcome was entered for the compound C[C@]12CCC(=O)C=C1CC[C@@H]1[C@@H]2C(=O)C[C@@]2(C)[C@H]1CC[C@]2(O)C(=O)CO in this test?
## Output no (0)

----------
# Assay: Cell Viability - LYMP2-015 (AID 971);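 further: cells exposed to compound for 24 h; nearly all actives have a fitted effect of over 55% in size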
# Condition description: LYMP2-015 lymphoblastoid cell viability; series mostly up to 92.2 µM
Results filed as inconclusive are left out. Calls of active or inactive are those of the source. Calls follow the shape of the dose curve; as a rule, active = well fitted cell-killing curve with a large enough effect; inconclusive = small, poorly fitted or top-dose-only effect; inactive = flat fitted curve, though single readings scatter.
In this exercise, the only acceptable responses are class 1 for active, class 0 for inactive

Examples from the recorded data:
Oc1c(Br)cc(Br)cc1Br class 0
CCCCCCCCCCCC[N+](C)(C)CCOc1ccccc1 class 1
CNC(=O)Oc1cccc2ccccc12 class 0

# next compound below
## Input Just curious, what result did COP(=O)(OC)OC=C(Cl)Cl get here?
## Output class 0

----------
# Test system: Thyroid hormone receptor beta (Homo sapiens) (UniProt P10828)
# Sequence (P10828 whole entry, looked up): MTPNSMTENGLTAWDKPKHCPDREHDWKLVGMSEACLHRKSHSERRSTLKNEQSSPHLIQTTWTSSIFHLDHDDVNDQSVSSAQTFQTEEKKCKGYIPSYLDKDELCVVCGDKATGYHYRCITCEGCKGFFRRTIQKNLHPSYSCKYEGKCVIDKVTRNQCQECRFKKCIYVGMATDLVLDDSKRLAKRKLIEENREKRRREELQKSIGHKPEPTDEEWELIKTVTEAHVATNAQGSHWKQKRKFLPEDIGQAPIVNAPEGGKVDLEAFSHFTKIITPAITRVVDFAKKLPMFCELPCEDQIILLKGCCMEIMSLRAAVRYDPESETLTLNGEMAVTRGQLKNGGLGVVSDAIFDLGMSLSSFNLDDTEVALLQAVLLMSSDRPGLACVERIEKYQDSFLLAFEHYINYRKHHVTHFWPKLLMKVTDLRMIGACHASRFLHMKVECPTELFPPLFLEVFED
# Assay: qHTS assay for small molecule antagonists of thyroid hormone receptor beta signaling (AID 588547);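 further: cells stimulated with 0.4 nM T3 agonist during compound exposure; on the % scale 0 is the no-effect control and ±100 the full control effect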
# Condition description: TR-UAS-bla HEK293, beta-lactamase ratio, antagonist mode, 18 h
Records with an inconclusive call do not appear.
Reported activity change % (negative = inhibition) is given for each of the following compounds.
Write down the numeric answer in % and omit the unit.

Example results:
Compound	Experimental value
Oc1c(Br)cc(Br)cc1Br	15.6
CCCCCCCCC(=O)NCc1ccc(O)c(OC)c1	5.83
CCNc1nc(Cl)nc(NCC)n1	3.97
O=c1n(Cl)c(=O)n(Cl)c(=O)n1Cl	4.09
C[C@@H]1C[C@@H]([C@H](O)CC2CC(=O)NC(=O)C2)C(=O)[C@@H](C)C1	-37.8

--- query ---
## Input Entry N#Cc1nn(-c2c(Cl)cc(C(F)(F)F)cc2Cl)c(N)c1S(=O)C(F)(F)F (stereo unspecified) has what activity change % (negative = inhibition)?
## Output -25.5

----------
# Assay: MultiTox-Fluor Cytotoxicity Assay - LYMP1-001 - Live Cells (AID 947)
# Condition description: LYMP1-001 lymphoblastoid cells, live-cell protease fluorescence viability; series mostly up to 92.2 µM
# Excerpt: NIH Chemical Genomics Center [NCGC] NIH Molecular Libraries Screening Centers Network [MLSCN] National Institutes of Environmental Health Sciences [NIEHS] National Toxicology Program [NTP] We have developed a 1536-well cell-based assay for quantitative high throughput screening (qHTS) against a number of cell lines to determine in vitro cytotoxicity of small molecules. […] 8. Detection; live-cell fluorescence (Ex/Em=405/510); EnVision plate reader […]
Inconclusive results are not listed. Active and inactive are the calls of the source. Calls come from the whole dose curve; as a rule, active = well fitted cell-killing curve with a large enough effect; inconclusive = small, poorly fitted or top-dose-only effect; inactive = flat fitted curve, though single readings scatter.
// one of active, inactive, no free text

Answered examples (4):
C[C@@H]1C[C@@H]([C@H](O)CC2CC(=O)NC(=O)C2)C(=O)[C@@H](C)C1 inactive
O=C(CCl)c1ccc(Cl)cc1Cl active
Oc1c(Br)cc(Br)cc1Br inactive
COP(=O)(OC)OC=C(Cl)Cl inactive

API: the following record is the query input.
## Input Name the outcome recorded for CCCCCCCCCCCC[N+](C)(C)CCOc1ccccc1 in the assay.
## Output active

----------
# Assay: qHTS of pediatric cancer cell lines to identify multiple opportunities for drug repurposing: Primary screen for Saos-2 cells (AID 1347097); further: nearly all actives have a fitted effect of over 40% in size
# Condition description: Saos-2 viability, CellTiter-Glo ATP luminescence, 48 h; series mostly up to 46 µM
Results filed as inconclusive are left out. Activity calls are given as the source filed them. Calls follow the shape of the dose curve; as a rule, active = well fitted cell-killing curve with a large enough effect; inconclusive = small, poorly fitted or top-dose-only effect; inactive = no such curve, though single readings can be large or run the other way.
Hi! Could you answer with just one of these? active, inactive

## Input Query: recorded result category for COc1ccc2[nH]cc(CCN(C(C)C)C(C)C)c2c1 in this test
## Output inactive

## Input Recorded call for Cc1nnc2n1-c1sc(CCC(=O)N3CCOCC3)cc1C(c1ccccc1Cl)=NC2 ?
## Output inactive

## Input Which outcome did this test record for the molecule CN(C)C(=S)SSC(=S)N(C)C ?
## Output active

## Input What did this assay record as the result for CN1C(=O)CN=C(c2ccccc2)c2cc([N+](=O)[O-])ccc21 ?
## Output inactive

## Input Could you check what this test reported for COc1cc(C[C@@H](C)N)c(OC)cc1C ?
## Output inactive

## Input Could you kindly confirm the outcome this assay logged for Cc1c(Cl)c(=O)oc2cc(OP(=O)(OCCCl)OCCCl)ccc12 ?
## Output inactive

----------
# Test system: Nucleoprotein (Lymphocytic choriomeningitis virus (strain Armstrong)) (UniProt P09992)
# Sequence (P09992 whole entry, looked up): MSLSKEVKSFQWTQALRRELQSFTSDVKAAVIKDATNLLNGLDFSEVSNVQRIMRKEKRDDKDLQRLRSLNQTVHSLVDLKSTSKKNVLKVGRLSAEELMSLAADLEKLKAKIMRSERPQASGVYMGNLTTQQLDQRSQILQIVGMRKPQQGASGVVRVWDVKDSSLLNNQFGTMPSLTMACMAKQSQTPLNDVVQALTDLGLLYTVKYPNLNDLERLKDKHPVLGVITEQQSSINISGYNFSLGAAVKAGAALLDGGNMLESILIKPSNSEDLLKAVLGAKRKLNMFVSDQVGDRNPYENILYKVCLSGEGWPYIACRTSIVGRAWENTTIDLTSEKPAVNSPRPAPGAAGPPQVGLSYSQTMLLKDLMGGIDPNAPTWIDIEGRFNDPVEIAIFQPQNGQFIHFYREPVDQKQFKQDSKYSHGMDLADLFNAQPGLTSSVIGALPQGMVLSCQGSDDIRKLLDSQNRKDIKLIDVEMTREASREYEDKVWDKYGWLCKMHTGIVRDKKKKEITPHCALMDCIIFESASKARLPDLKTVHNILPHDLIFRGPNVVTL
# Assay: qHTS for Inhibitors of the Functional Ribonucleoprotein Complex (vRNP) of Lymphocytic Choriomeningitis Arenaviruses (LCMV): LCMV Primary Screen - GLuc reporter signal (AID 1347086); further: on the % scale 0 is the no-effect control and ±100 the full control effect; nearly all actives have a fitted effect of over 70% in size
# Condition description: LCMV minigenome vRNP cell assay, Gaussia luciferase reporter; series mostly up to 57.5 µM
Results filed as inconclusive are left out. Calls of active or inactive are those of the source. Calls follow the shape of the full dose curve.
Assay metric: outcome

Use the examples below as a reference point.
Molecule	outcome
CC(=O)/C=C/C=C1/C2CCC(C2)C1(C)C (stereo unspecified)	inactive
COC(=O)C1=C(C)NC(COC(N)=O)=C(C(=O)OC(C)C)C1c1cccc(Cl)c1Cl (stereo unspecified)	inactive
O=C1OC(c2ccc(O)cc2)(c2ccc(O)cc2)c2ccccc21	inactive
Oc1ccc(CCNCCCCCCNCCc2ccccc2)cc1O	inactive
ClC1=C(Cl)C2(Cl)C(CBr)CC1(Cl)C2(Cl)Cl (stereo unspecified)	inactive

Please turn your attention to the following entry.
## Input What is its outcome for Nucleoprotein (Lymphocytic choriomeningitis virus (strain Armstrong)) (UniProt P09992)? Entry: NS(=O)(=O)c1ccc(N2CCCCS2(=O)=O)cc1
## Output inactive

----------
# Condition description: Ebola virus entry assay, blue channel fluorescence
Activity calls are given as the source filed them. No rule for the calls is given here.
Return exactly one item of active, inactive

## Input Record lookup: outcome of this test for NC[C@H]1O[C@H](O[C@H]2[C@H](O)[C@@H](O[C@H]3O[C@H](CO)[C@@H](O)[C@H](N)[C@H]3O)[C@H](N)C[C@@H]2N)[C@H](N)[C@@H](O)[C@@H]1O ?
## Output inactive

## Input Write down the call the test reported for this compound. Item: ClCc1cccc(Cl)c1
## Output inactive

## Input So what was the verdict on C[C@@H](CN(C)C)CN1c2ccccc2Sc2ccccc21 in this test?
## Output active

## Input I would be grateful if you could indicate the recorded call for O=C(COc1ccc(Cl)cc1)N1CCN(Cc2ccc3c(c2)OCO3)CC1 .
## Output inactive

## Input Hi, sorry to bother you, what did the test record for CN(C)c1ccc(C(=C2C=CC(=[N+](C)C)C=C2)c2ccccc2)cc1 ?
## Output active

## Input Could you check what this test reported for COc1ccc2c3c1O[C@H]1[C@@H](O)C=C[C@H]4[C@@H](C2)N(C)CC[C@@]341 ?
## Output active

## Input Which outcome was entered for the compound CCC(=O)Nc1ccc(O)cc1 in this test?
## Output inactive

## Input Hi, sorry to bother you, what did the test record for CCCCC1C(=O)NC(=O)N(C2CCCCC2)C1=O (stereo not drawn) ?
## Output inactive

## Input # lookup: test call for CCOC(=O)NC(O)C(Cl)(Cl)Cl (stereo not drawn)
## Output inactive

## Input Hi, do you know how CCNC(=O)N1CCN(CCCC(c2ccc(F)cc2)c2ccc(F)cc2)CC1 came out in this test?
## Output active

## Input Please let me know the test result on file for C(=C\c1ccccc1)/CN1CCN(C(c2ccccc2)c2ccccc2)CC1 .
## Output inactive

## Input Lab log entry: CC(=O)OCC1=C(C(=O)O)N2C(=O)[C@@H](NC(=O)CSc3ccncc3)[C@H]2SC1 — outcome as called in the assay?
## Output inactive

## Input I'd appreciate the recorded outcome for CCOCCn1c(N2CCCN(C)CC2)nc2ccccc21 from this test.
## Output inactive

## Input Each compound tested received a call. Report the one for Cc1nc(C2CCCCC2)c(-c2ccc(S(N)(=O)=O)c(F)c2)o1 .
## Output active

## Input Assay outcome for Cc1ccc2c(Cl)cc(Cl)c(O)c2n1 : what was it?
## Output inactive

## Input State the result this test recorded for CN1[C@@H]2CC[C@H]1CC(OC(=O)c1cc(Cl)cc(Cl)c1)C2 (stereo partly drawn) .
## Output active

Where these numbers come from: PubChem BioAssay (NCATS)
